pKi: recorded values
target.system: 5'-nucleotidase (Rattus norvegicus)
assay.info: Inhibition of recombinant rat C-terminal His-tagged soluble form of CD73 expressed in baculovirus infected Sf9 insect cells using [2,8-3H]AMP as substrate measured after 25 mins by scintillation counting method
pKi: −log10 of the molar value.

| smiles.string | target.system | readout.relation | pKi |
| --- | --- | --- | --- |
| Cn1c(=O)ccn([C@@H]2O[C@H](COP(=O)(O)CP(=O)(O)O)[C@@H](O)[C@H]2O)c1=O | 5'-nucleotidase (Rattus norvegicus) | = | 5.73 |
| O=c1[nH]/c(=N/OCc2ccc3ccccc3c2)ccn1[C@@H]1O[C@H](COP(=O)(O)CP(=O)(O)O)[C@@H](O)[C@H]1O | 5'-nucleotidase (Rattus norvegicus) | = | 7.73 |
| C=C(Cl)c1cn([C@@H]2O[C@H](COP(=O)(O)CP(=O)(O)O)[C@@H](O)[C@H]2O)c(=O)n(C)c1=O | 5'-nucleotidase (Rattus norvegicus) | = | 5.98 |
| Cc1cn([C@@H]2O[C@H](COP(=O)(O)CP(=O)(O)O)[C@@H](O)[C@H]2O)c(=O)[nH]c1=O | 5'-nucleotidase (Rattus norvegicus) | = | 6.47 |
| N[C@@H]1[C@H](O)[C@@H](COP(=O)(O)CP(=O)(O)O)O[C@H]1n1ccc(=O)[nH]c1=O | 5'-nucleotidase (Rattus norvegicus) | < | 6.00 |
| O=c1[nH]c(=O)n([C@@H]2O[C@H](COP(=O)(O)CP(=O)(O)O)[C@@H](O)[C@H]2O)cc1Br | 5'-nucleotidase (Rattus norvegicus) | = | 7.05 |
| [N-]=[N+]=N[C@@H]1[C@H](O)[C@@H](COP(=O)(O)CP(=O)(O)O)O[C@H]1n1ccc(=O)[nH]c1=O | 5'-nucleotidase (Rattus norvegicus) | < | 6.00 |
| Cc1cn([C@@H]2O[C@H](COP(=O)(O)CP(=O)(O)O)[C@@H](O)[C@H]2O)c(=O)[nH]/c1=N/OCc1ccccc1 | 5'-nucleotidase (Rattus norvegicus) | = | 6.49 |

====

Form field: pKi (one value per entry).
target.system: 5'-nucleotidase (Rattus norvegicus)
Sequence (P21588 whole entry): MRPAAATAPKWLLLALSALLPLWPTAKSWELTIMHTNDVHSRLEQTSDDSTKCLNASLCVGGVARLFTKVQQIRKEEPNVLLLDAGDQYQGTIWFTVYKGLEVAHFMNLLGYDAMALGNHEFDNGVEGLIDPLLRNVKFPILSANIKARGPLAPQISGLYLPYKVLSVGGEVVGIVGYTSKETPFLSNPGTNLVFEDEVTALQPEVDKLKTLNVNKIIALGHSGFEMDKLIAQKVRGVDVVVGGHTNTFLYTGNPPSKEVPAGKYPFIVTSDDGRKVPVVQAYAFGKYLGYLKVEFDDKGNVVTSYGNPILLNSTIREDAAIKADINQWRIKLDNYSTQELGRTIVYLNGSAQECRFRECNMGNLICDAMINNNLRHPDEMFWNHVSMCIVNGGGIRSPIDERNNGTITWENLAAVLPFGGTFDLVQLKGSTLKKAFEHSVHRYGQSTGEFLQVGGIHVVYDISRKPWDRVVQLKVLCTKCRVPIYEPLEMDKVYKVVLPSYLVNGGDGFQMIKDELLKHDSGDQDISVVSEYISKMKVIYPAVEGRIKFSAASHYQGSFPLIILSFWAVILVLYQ
assay.info: Inhibition of recombinant rat C-terminal His-tagged soluble form of CD73 expressed in baculovirus infected Sf9 insect cells using [2,8-3H]AMP as substrate measured after 25 mins by scintillation counting method
pKi: −log10 of the molar value.
measured.attribute: pKi

| smiles.string | target.system | measured.attribute | readout.relation | val |
| --- | --- | --- | --- | --- |
| O=c1cnn([C@@H]2O[C@H](COP(=O)(O)CP(=O)(O)O)[C@@H](O)[C@H]2O)c(=O)[nH]1 | 5'-nucleotidase (Rattus norvegicus) | pKi | < | 6.00 |
| O=c1[nH]c(=O)n([C@@H]2O[C@H](COP(=O)(O)CP(=O)(O)O)[C@@H](O)[C@H]2O)cc1F | 5'-nucleotidase (Rattus norvegicus) | pKi | = | 7.83 |
| Nc1nc(=O)n([C@@H]2O[C@H](COP(=O)(O)CP(=O)(O)O)[C@@H](O)[C@H]2O)cc1F | 5'-nucleotidase (Rattus norvegicus) | pKi | = | 6.46 |
| CCOP(=O)(O)OP(=O)(O)OC[C@H]1O[C@@H](n2ccc(=O)[nH]c2=S)[C@H](O)[C@@H]1O | 5'-nucleotidase (Rattus norvegicus) | pKi | < | 6.00 |
| O=c1ccn([C@@H]2O[C@H](COP(=O)(O)CP(=O)(O)O)[C@@H](O)[C@H]2F)c(=O)[nH]1 | 5'-nucleotidase (Rattus norvegicus) | pKi | < | 6.00 |
| O=c1ccn([C@@H]2O[C@H](COP(=O)(O)CP(=O)(O)O)[C@@H](O)[C@H]2O)c(=O)n1Cc1ccccc1 | 5'-nucleotidase (Rattus norvegicus) | pKi | < | 6.00 |
| O=c1[nH]/c(=N\OCc2ccccc2)ccn1[C@@H]1O[C@H](COP(=O)(O)CP(=O)(O)O)[C@@H](O)[C@H]1O | 5'-nucleotidase (Rattus norvegicus) | pKi | = | 6.95 |
| O=c1ccn([C@@H]2O[C@H](COP(=O)(O)CP(=O)(O)O)[C@@H](O)[C@H]2O)c(=O)[nH]1 | 5'-nucleotidase (Rattus norvegicus) | pKi | = | 5.74 |
